parameters: species or system Göttingen mini-pigs; details: minipig, in vivo, iv, 10 nmol/kg
Numbered stars: 1 amine (or outer) side, 2 acyl side, 3 side chain; on linkers, the order of the positions; unused ones are H or OH. Peptide text beside a SMILES is read from it. * marks the point of attachment. C18 diacid = O=C(O)CCCCCCCCCCCCCCCCC(=O)*; γGlu = O=C(O)[C@H](CCC(=O)[*:2])N[*:1]; AEEA = NCCOCCOCC(=O)O
measured endpoint: half-life

# compound, observed value
records = [
    ("CC(C)C[C@H](NC(=O)[C@H](Cc1c[nH]c2ccccc12)NC(=O)CNC(=O)[C@H](Cc1ccc(O)cc1)NC(=O)[C@H](C)NC(=O)[C@H](CCC(=O)O)NC(=O)[C@H](CCC(=O)O)NC(=O)[C@H](CCC(=O)O)NC(=O)[C@H](CCC(=O)O)NC(=O)COCCOCCNC(=O)COCCOCCNC(=O)CC[C@H](NC(=O)CCCCCCCCCCCCCCCCC(=O)O)C(=O)O)C(=O)N[C@@H](CC(=O)O)C(=O)N[C@@H](Cc1ccccc1)C(N)=O [N-α-#-[Leu15] Gastrin-17 (7-17)] ({C18 diacid-γGlu-AEEA-AEEA}-EEEEAYGWLDF-NH2)", "~95 h"),
]

half-life reading for CSCC[C@H](NC(=O)[C@H](Cc1c[nH]c2ccccc12)NC(=O)CNC(=O)[C@H](Cc1ccc(O)cc1)NC(=O)[C@H](C)NC(=O)[C@H](CCC(=O)O)NC(=O)[C@H](CCC(=O)O)NC(=O)[C@H](CCC(=O)O)NC(=O)[C@H](CCC(=O)O)NC(=O)[C@H](CCC(=O)O)NC(=O)[C@H](CC(C)C)NC(=O)[C@H](Cc1c[nH]c2ccccc12)NC(=O)[C@@H]1CCCN1C(=O)CNC(=O)[C@@H](N)CCC(N)=O)C(=O)N[C@@H](CC(=O)O)C(=O)N[C@@H](Cc1ccccc1)C(N)=O [gastrin-17, reference compound] : 0.058 h
